This collection of values is drawn from PubChem BioAssay (NCI).

I'd be grateful if you could share measured GI50 for these entries.
# System: TK-10 renal
# Measurement description: NCI tumour cell line growth inhibition, 48 h

Per the record, O=C1/C(=C/N2N=C(c3ccc4ccccc4c3)CC2c2ccccc2O)SC(=S)N1c1cccnc1 (stereo not drawn) has GI50 of 1.84 µM

Per the record, COc1ccc2c(c1)c(-c1nc(-c3c[nH]c4ncccc34)cs1)cn2CCCCN1CCCCC1 has GI50 of 1.51 µM

Per the record, CN1C(NNC(=O)c2cccnc2)=NS(=O)(=O)c2cc(Cl)ccc21 has GI50 of > 100 µM

Per the record, COc1cc(/C=C/C(=O)C(C(=O)/C=C/c2ccc(OC(=O)CCNC34CC5CC(CC(C5)C3)C4)c(OC)c2)C(=O)CCNC23CC4CC(CC(C4)C2)C3)ccc1OC(=O)CCNC12CC3CC(CC(C3)C1)C2 (stereo not drawn) has GI50 of 3.77 µM

Per the record, COc1ccc2c(c1)C(C)Cc1c(ncnc1-n1cnc3ccccc31)N2C (stereo not drawn) has GI50 of 0.793 µM

Per the record, Cn1cc(-c2csc(-c3cn(C)c4ccc(F)cc34)n2)c2cnccc21 has GI50 of 1.56 µM

Per the record, NCCCOc1cc2ccccc2cc1C(=O)NCCCOc1cc2ccccc2cc1C(=O)Nc1ccc(Cl)cc1O has GI50 of 0.583 µM

Per the record, COc1cc2c3c(n(CCCN(C)CCO)c(=O)c2cc1OC)-c1cc2c(cc1C3=O)OCO2 has GI50 of 81.7 µM

---

# Test system: HCT-116 colon
# Measurement description: NCI tumour cell line growth inhibition, 48 h
Observed property: TGI

Per the record, CCc1cccc(C)c1NC(=O)CC1C(=O)Nc2ccccc2S1=O (stereo unspecified) has TGI of > 100 µM

Per the record, CC(=O)SC(C[N+](=O)[O-])c1ccc2c(c1)OCO2 (stereo unspecified) has TGI of 5.22 µM

Per the record, Cc1noc2c1-c1ccccc1C(c1ccc(Cl)cc1)=N[C@H]2CC(N)=O has TGI of > 100 µM

Per the record, NC(=O)CNc1ccc([As]=[As]c2ccc(NCC(N)=O)cc2)cc1 (stereo unspecified) has TGI of 16.3 µM

Per the record, O=C1c2ccccc2C(=O)N1C/C=N/NS(=O)(=O)c1ccc(Br)cc1 has TGI of > 100 µM

Per the record, O=C(N/N=C/c1ccc(O)cc1O)c1cccnc1 has TGI of > 100 µM

---

I'd be grateful if you could share measured TGI for these entries.
# System: SN12C renal
# Measurement description: NCI tumour cell line growth inhibition, 48 h

Per the record, C(=Nc1ccc2c(c1)Cc1ccccc1-2)c1ccccn1 has TGI of 90.3 µM

Per the record, O=C1c2ccccc2C(=O)N1C/C=N/NS(=O)(=O)c1ccc(Br)cc1 has TGI of > 100 µM

Per the record, C=CCC1(C)CCCCC1(O)CS(=O)c1ccccc1 (stereo unspecified) has TGI of > 100 µM

Per the record, Cc1noc2c1-c1ccccc1C(c1ccc(Cl)cc1)=N[C@H]2CC(N)=O has TGI of > 100 µM

Per the record, O=C(NCCN1CCOCC1)c1ccc(I)cc1 has TGI of > 100 µM

Per the record, CC(=O)OCCOCNC(=S)N/N=C/c1ccc([N+](=O)[O-])s1 has TGI of > 100 µM
